- Tested on: MS2 coat protein
- procedureSummary: apparent KD of MS2 coat protein; higher = weaker reporter binding
- condition: Eterna round: R107; input ligand: theophylline 20 uM
Recorded measurements of apparent KD of MS2 coat protein, one per entry
Give just the numeric value; nM need not be written.

Example cases with answers are listed next.
sequenceString	units	apparent KD of MS2 coat protein
AUUAUAGUUUAUAACGAAGUUGAUACAGAAGGAGCGUGAAUAAUCACAGGUAGGUCGCUGAUAAUACAUGAGGAUCACCCAUGUU [JR_Nu_SSArginiA_Sub018]	nM	31.9
UGUAUGGACUGAAGGAGCGGGUUGAUAACCUGAGGAUCAUCCAGGUAAAAGGCGAAAGCCACCCAGGUAGGUCGCAGUCCAUACU	nM	344

Task: Query apparent KD of MS2 coat protein for AAUAACAUGAGGAUCACCCAUGUAAAAGAUACCAGAUGCAUGAUGAUCCCUUGGCAGCUUAAACGCGAUUGAUUACAAUCGCGAA [Mat - Same State Theophlline A - Mod of Eli - D10]
Output: 71.9

Task: Query apparent KD of MS2 coat protein for ACAUGAGGAUCACCCAUGUGCAGAACGGAUACCAGCGUCCUGGUACGCCCUUGGCAGCCGGACAUGAGGAUCACCCAUGUGUGGA [Exclusion Theophylline A GF29]
Output: 161

Task: Query apparent KD of MS2 coat protein for AUAAAUAAUAAAUAAGAUAAAAUGGGUGAACGAGGACCGGUACGGCCGCCACUCGGACAUGAGGAUCACCCAUGUCCAUGUGAAA [#22 Exclusion Tryptophan A]
Output: 19.8

Task: Query apparent KD of MS2 coat protein for ACAUGAGGAUCACCCAUGUCAGGGCACGAUACCAGCUGAUCCGAUGGCCCUUGGCAGCGUUACGUGUGGUCAUGAGGAUCACCCG [pjbmullin]
Output: 101

###

- Tested on: MS2 coat protein
- procedureSummary: apparent KD of MS2 coat protein; higher = weaker reporter binding
- condition: Eterna round: R107; input ligand: theophylline 20 uM
readoutLabel: apparent KD of MS2 coat protein
In your response, the unit should come after the numeric value.

sequenceString	apparent KD of MS2 coat protein
UCAAUACAGUCGGCCGCCACUGUAACCAAACCUACAUACCAACAUGAGGAUCACCCAUGUUUAUACAGGACCGGGACCUCUAUGA [theeternabot_sameState_MS2_Trp_B_10]	45.8 nM
UACAUACAUGAGGAUCACCCAUGUUGCGAUACCAGCGAAAGAGACCGCCCUUGGCAGCGCUCAUUUAGUUCCAUUCUUGAUCGAA [theeternabot_sameState_MS2_Theo_A_4]	23.7 nM

Task: Query apparent KD of MS2 coat protein for GUCCUAGCGAGCGCUCGCUAGGACGCGGAUACCAGCGAGGUCCAUCGCCCUUGGCAGCCGAACAUGAGGAUCACCCAUGUCGGUA [#1 Same State - Theophylline A Attempt #16 (HarryS)]
Output: 13.2 nM

Task: Query apparent KD of MS2 coat protein for ACAUGAGACAUGGAUACCAGCGACAUGAGGAUCACCCAUGUAUGAGGAUCACCCAUGUUAUGCCCUUGGCAGCCACAAACAUGAG [.PLMULLINP]
Output: 30.8 nM

Task: Query apparent KD of MS2 coat protein for GGUGAUCCGUAUCACCGGAUCAUCGGUGAUACCAGCAUCGAAAGAUGCCCUUGGCAGCACCAACAUGAGGAUCACCCAUGUAAUA [(M)'-(T)'-(M)''-(T1)-(T2)-(M1)-(M2)_Design6]
Output: 67 nM

Task: Query apparent KD of MS2 coat protein for GGAUAGGACACGGCCGCCACUGCCUAGGAUACUAGCAACAUUUGGGUACAAGAGGAUCACCCUUGUAGGACCGGGUGUCCUAUCG
Output: 38.6 nM

Task: Query apparent KD of MS2 coat protein for AAAAUCCUACCUGAGGAUCACCCGGGUGAAGGAGCGCCCGAAAGGGCAGGUAGGUCGCACCUGAGGAUCACCCUGGUAAACCUAA [ArgEX 23 #DoubleMS2 #OpenEnded]
Output: 183 nM

Task: Query apparent KD of MS2 coat protein for AGACAUGAGGAUCACCCAUGUAGCAUGGAUACCAGAUGUAGAUUAGUCCCUUGGCAGCUGUGGUGAAGUGAUGCAUUGCUCCUAG [Exclusion - Theophylline A (Freestyle 2)]
Output: 74.3 nM
